Test system: CL 4931, CL 5053, CL 5242 and CL 4877
Format: cell-based, E. faecium, E. faecalis
Design: unit not given here
Conditions: mean of CL4931, CL5053, CL5242, CL4877; unit not given
measured_endpoint: Mean

* CNC(CC(C)C)C(=O)NC1C(=O)NC(CC(N)=O)C(=O)NC2C(=O)NC3C(=O)NC(C(=O)NC(C(=O)O)c4cc(O)cc(O)c4-c4cc3ccc4O)C(O)c3ccc(c(Cl)c3)Oc3cc2cc(c3OC2OC(CNCC(C)C)C(O)C(O)C2OC2CC(C)(NCc3ccc(OCc4ccc(Cl)c(Cl)c4)cc3)C(O)C(C)O2)Oc2ccc(cc2Cl)C1O (centres unmarked) | 10.0
* CNC(CC(C)C)C(=O)NC1C(=O)NC(CC(N)=O)C(=O)NC2C(=O)NC3C(=O)NC(C(=O)NC(C(=O)O)c4cc(O)cc(O)c4-c4cc3ccc4O)C(O)c3ccc(c(Cl)c3)Oc3cc2cc(c3OC2OC(CN)C(O)C(O)C2OC2CC(C)(NCc3ccc(OCc4ccc(Cl)c(Cl)c4)cc3Cl)C(O)C(C)O2)Oc2ccc(cc2Cl)C1O (centres unmarked) | 4

###

System: E. faecium CL 4931 (VanA)
Assay: microbe, parasite or virus in culture
Type: cell-based
Set-up: unit not given here
Conditions: Tables 7 and 8; unit not given
measured_endpoint: CL4931 (in vitro testing)

* CNC(CC(C)C)C(=O)NC1C(=O)NC(CC(N)=O)C(=O)NC2C(=O)NC3C(=O)NC(C(=O)NC(C(=O)O)c4cc(O)cc(O)c4-c4cc3ccc4O)C(O)c3ccc(c(Cl)c3)Oc3cc2cc(c3OC2OC(CN)C(O)C(O)C2OC2CC(C)(NCc3ccc(C(=O)Oc4ccc(Cl)cc4)cc3)C(O)C(C)O2)Oc2ccc(cc2Cl)C1O (stereo not drawn) | 16
* CNC(CC(C)C)C(=O)NC1C(=O)NC(CC(N)=O)C(=O)NC2C(=O)NC3C(=O)NC(C(=O)NC(C(=O)O)c4cc(O)cc(O)c4-c4cc3ccc4O)C(O)c3ccc(c(Cl)c3)Oc3cc2cc(c3OC2OC(CN)C(O)C(O)C2OC2CC(C)(NCc3ccc(OCc4ccc(Cl)cc4Cl)cc3)C(O)C(C)O2)Oc2ccc(cc2Cl)C1O (stereo not drawn) | 8
* CNC(CC(C)C)C(=O)NC1C(=O)NC(CC(N)=O)C(=O)NC2C(=O)NC3C(=O)NC(C(=O)NC(C(=O)O)c4cc(O)cc(O)c4-c4cc3ccc4O)C(O)c3ccc(c(Cl)c3)Oc3cc2cc(c3OC2OC(CN3CCCC3)C(O)C(O)C2OC2CC(C)(NCc3ccc(OCc4ccc(Cl)c(Cl)c4)cc3)C(O)C(C)O2)Oc2ccc(cc2Cl)C1O (stereo not drawn) | 16
* CNC(CC(C)C)C(=O)NC1C(=O)NC(CC(N)=O)C(=O)NC2C(=O)NC3C(=O)NC(C(=O)NC(C(=O)O)c4cc(O)cc(O)c4-c4cc3ccc4O)C(O)c3ccc(c(Cl)c3)Oc3cc2cc(c3OC2OC(CNCCc3ccc(N)cc3)C(O)C(O)C2OC2CC(C)(NCc3ccc(OCc4ccc(Cl)c(Cl)c4)cc3)C(O)C(C)O2)Oc2ccc(cc2Cl)C1O (stereo not drawn) | 4
* CNC(CC(C)C)C(=O)NC1C(=O)NC(CC(N)=O)C(=O)NC2C(=O)NC3C(=O)NC(C(=O)NC(C(=O)O)c4cc(O)cc(O)c4-c4cc3ccc4O)C(O)c3ccc(c(Cl)c3)Oc3cc2cc(c3OC2OC(CNCc3ccc(Cl)c(Cl)c3)C(O)C(O)C2OC2CC(C)(NCc3ccc(OCc4ccc(Cl)c(Cl)c4)cc3)C(O)C(C)O2)Oc2ccc(cc2Cl)C1O (stereo not drawn) | 16
* CNC(CC(C)C)C(=O)NC1C(=O)NC(CC(N)=O)C(=O)NC2C(=O)NC3C(=O)NC(C(=O)NC(C(=O)O)c4cc(O)cc(O)c4-c4cc3ccc4O)C(O)c3ccc(c(Cl)c3)Oc3cc2cc(c3OC2OC(CNCC(C)C)C(O)C(O)C2OC2CC(C)(NCc3ccc(OCc4ccc(Cl)c(Cl)c4)cc3)C(O)C(C)O2)Oc2ccc(cc2Cl)C1O (stereo not drawn) | 16
